test_name: Biodistribution of 177Lu-labeled αMSH analogues in mice bearing B16F10 mouse melanoma
Format: in vivo, C57BL/6J mice
applied_conditions: mouse, tumour/kidney, iv, total radioactivity; 1 h p.i., C57BL/6J mice, B16F10 melanoma; read-out: Tumour/kidney
Output true (1) for records whose tissue to tissue ratio at 1 h is lower than 2, false (0) for records at or above 2.

compound: CCCC[C@H](NC(=O)CN1CCC(NC(=O)[C@H](CCCCNC(=O)CN2CCN(CC(=O)O)CCN(CC(=O)O)CCN(CC(=O)O)CC2)NC(=O)[C@H](CCC(=O)O)NC(=O)CCCc2ccc(I)cc2)CC1)C(=O)N[C@H]1CC(=O)NCCCC[C@@H](C(N)=O)N(C)C(=O)[C@H](Cc2c[nH]c3ccccc23)N(C)C(=O)[C@H](CCCNC(=N)N)N(C)C(=O)[C@@H](Cc2ccccc2)NC(=O)[C@H](Cc2c[nH]cn2)N(C)C1=O [^177Lu-labeled CCZ01088, metal not drawn]
answer_label: true (1)
//
compound: CCCC[C@H](NC(=O)CN1CCC(NC(=O)[C@H](CCCCNC(=O)CN2CCN(CC(=O)O)CCN(CC(=O)O)CCN(CC(=O)O)CC2)NC(=O)[C@H](CCC(=O)O)NC(=O)CCCc2ccc(I)cc2)CC1)C(=O)N[C@H]1CC(=O)NCCCC[C@@H](C(N)=O)NC(=O)[C@H](Cc2c[nH]c3ccccc23)NC(=O)[C@H](CCCNC(=N)N)NC(=O)[C@@H](Cc2ccccc2)NC(=O)[C@H](Cc2c[nH]cn2)NC1=O [^177Lu-labeled CCZ01082, metal not drawn]
answer_label: true (1)
//
compound: CCCC[C@H](NC(=O)CN1CCC(NC(=O)CN2CCN(CC(=O)O)CCN(CC(=O)O)CCN(CC(=O)O)CC2)CC1)C(=O)N[C@H]1CC(=O)NCCCC[C@@H](C(N)=O)NC(=O)[C@H](Cc2c[nH]c3ccccc23)NC(=O)[C@H](CCCNC(=N)N)NC(=O)[C@@H](Cc2ccccc2)NC(=O)[C@H](Cc2c[nH]cn2)NC1=O [^177Lu-labeled CCZ01048, metal not drawn, reference compound]
answer_label: false (0)
//
compound: CCCC[C@H](NC(=O)CN1CCC(NC(=O)CN2CCN(CC(=O)O)CCN(CC(=O)O)CCN(CC(=O)O)CC2)CC1)C(=O)N[C@H]1CC(=O)NCCCC[C@@H](C(N)=O)N(C)C(=O)[C@H](Cc2c[nH]c3ccccc23)NC(=O)[C@H](CCCNC(=N)N)N(C)C(=O)[C@@H](Cc2ccccc2)NC(=O)[C@H](Cc2c[nH]cn2)NC1=O [^177Lu-labeled CCZ01106, metal not drawn]
answer_label: true (1)

Reference source: patent US11395857B2
